Biological target: Receptor-type tyrosine-protein phosphatase C (Homo sapiens)
Sequence (P08575 whole entry): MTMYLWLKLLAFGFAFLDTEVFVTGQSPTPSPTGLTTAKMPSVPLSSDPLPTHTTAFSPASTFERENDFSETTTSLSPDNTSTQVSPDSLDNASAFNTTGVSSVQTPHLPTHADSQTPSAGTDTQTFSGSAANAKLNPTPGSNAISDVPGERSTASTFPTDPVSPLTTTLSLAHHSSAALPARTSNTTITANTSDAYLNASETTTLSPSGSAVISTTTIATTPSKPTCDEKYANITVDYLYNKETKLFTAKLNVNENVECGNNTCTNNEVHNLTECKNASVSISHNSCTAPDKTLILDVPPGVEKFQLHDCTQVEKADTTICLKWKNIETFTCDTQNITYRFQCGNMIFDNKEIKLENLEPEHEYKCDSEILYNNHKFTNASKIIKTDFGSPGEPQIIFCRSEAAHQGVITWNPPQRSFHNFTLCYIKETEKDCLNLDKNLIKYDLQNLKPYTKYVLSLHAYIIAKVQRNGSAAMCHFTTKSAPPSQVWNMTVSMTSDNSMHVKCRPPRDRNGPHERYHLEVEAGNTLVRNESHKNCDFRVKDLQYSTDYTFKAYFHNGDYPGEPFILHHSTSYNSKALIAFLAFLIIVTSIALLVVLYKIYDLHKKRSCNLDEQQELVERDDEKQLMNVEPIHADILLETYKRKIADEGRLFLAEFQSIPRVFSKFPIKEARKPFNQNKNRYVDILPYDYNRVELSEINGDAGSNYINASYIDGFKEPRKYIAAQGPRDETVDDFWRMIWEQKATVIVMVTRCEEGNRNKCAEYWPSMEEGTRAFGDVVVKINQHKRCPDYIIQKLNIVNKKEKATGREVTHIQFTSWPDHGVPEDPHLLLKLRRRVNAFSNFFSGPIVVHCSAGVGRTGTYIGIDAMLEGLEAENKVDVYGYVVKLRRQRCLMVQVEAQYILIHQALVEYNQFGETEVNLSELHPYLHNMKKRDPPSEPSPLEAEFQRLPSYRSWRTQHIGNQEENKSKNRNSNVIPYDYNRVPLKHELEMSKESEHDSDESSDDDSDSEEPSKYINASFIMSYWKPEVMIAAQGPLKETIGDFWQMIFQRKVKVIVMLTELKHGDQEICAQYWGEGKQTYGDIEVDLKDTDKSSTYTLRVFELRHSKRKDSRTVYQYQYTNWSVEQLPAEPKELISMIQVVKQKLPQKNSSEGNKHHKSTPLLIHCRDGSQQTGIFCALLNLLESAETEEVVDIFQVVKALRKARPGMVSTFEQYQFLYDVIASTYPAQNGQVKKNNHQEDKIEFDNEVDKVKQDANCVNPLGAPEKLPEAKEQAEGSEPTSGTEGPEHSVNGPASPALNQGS
observationType: IC50 (µM)
Provide only the numeric value, understood in µM.

Query :: Send back Receptor-type tyrosine-protein phosphatase C (Homo sapiens) IC50 of `Cn1c(-c2ccccc2)c(-c2cn(CCC(=O)Nc3ccc(-c4ccccc4)cc3)nn2)c2cc(C(=O)O)c(O)cc21` only.
Result :: 30

---

Target: Tyrosine-protein phosphatase non-receptor type 6 (Homo sapiens)
Sequence (P29350 whole entry): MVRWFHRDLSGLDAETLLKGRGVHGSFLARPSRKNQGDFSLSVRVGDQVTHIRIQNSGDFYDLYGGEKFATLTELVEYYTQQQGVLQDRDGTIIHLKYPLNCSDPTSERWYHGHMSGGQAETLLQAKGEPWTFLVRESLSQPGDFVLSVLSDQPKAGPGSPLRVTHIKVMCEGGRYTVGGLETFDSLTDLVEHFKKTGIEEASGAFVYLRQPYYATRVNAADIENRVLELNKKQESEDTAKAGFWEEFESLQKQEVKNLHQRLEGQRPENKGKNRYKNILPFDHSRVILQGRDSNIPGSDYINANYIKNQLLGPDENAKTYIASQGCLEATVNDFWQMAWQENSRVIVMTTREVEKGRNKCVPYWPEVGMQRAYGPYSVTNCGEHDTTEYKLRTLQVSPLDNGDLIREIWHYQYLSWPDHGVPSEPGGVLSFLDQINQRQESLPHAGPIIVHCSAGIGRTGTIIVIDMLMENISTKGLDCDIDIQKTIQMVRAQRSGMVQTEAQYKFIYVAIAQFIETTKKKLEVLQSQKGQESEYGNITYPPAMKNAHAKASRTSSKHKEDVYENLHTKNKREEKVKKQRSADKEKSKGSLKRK
observationType: IC50 (µM)
Provide only the numeric value, understood in µM.

Query :: Send back Tyrosine-protein phosphatase non-receptor type 6 (Homo sapiens) IC50 of `Cn1c(-c2ccccc2)c(-c2cn(CCC(=O)Nc3ccc(-c4ccccc4)cc3)nn2)c2cc(C(=O)O)c(O)cc21` only.
Result :: 15.7

---

Target: Dual specificity protein phosphatase 3 (Homo sapiens, UniProt P51452)
Sequence (P51452 whole entry): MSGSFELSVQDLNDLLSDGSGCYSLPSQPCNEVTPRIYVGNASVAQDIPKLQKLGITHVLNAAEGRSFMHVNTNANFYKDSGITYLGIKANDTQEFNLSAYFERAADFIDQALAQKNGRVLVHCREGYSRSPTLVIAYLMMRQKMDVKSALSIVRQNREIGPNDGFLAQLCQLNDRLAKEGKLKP
Assay: Inhibition of VHR expressed in Escherichia coli assessed as inhibition of p-nitrophenyl phosphate hydrolysis at pH 7 by spectrophotometry
observationType: IC50

Query :: Supply recorded IC50 for `Cn1c(-c2ccccc2)c(-c2cn(CCC(=O)Nc3ccc(-c4ccccc4)cc3)nn2)c2cc(C(=O)O)c(O)cc21` here.
Result :: > 50 µM

---

Target protein (sequence): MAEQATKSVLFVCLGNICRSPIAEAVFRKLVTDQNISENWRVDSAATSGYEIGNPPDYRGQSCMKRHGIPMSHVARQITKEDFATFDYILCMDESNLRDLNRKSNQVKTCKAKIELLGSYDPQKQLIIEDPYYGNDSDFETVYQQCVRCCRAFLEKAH
observationType: pIC50
In simple prose, pIC50 is minus the logarithm base ten of a concentration in moles per litre.

Query :: Supply recorded pIC50 for `Cn1c(-c2ccccc2)c(-c2cn(CCC(=O)Nc3ccc(-c4ccccc4)cc3)nn2)c2cc(C(=O)O)c(O)cc21` here.
Result :: 4.51
